Where do the numbers come from? From patent US20060252697A1.

# assayedSystem: T1, rat growth hormone binding protein (rGHBP) (rat, UniProt P16310 19-265)
# T1 construct: extracellular domain; also called rat GHBP; soluble rGHBP
# T1 sequence (looked up): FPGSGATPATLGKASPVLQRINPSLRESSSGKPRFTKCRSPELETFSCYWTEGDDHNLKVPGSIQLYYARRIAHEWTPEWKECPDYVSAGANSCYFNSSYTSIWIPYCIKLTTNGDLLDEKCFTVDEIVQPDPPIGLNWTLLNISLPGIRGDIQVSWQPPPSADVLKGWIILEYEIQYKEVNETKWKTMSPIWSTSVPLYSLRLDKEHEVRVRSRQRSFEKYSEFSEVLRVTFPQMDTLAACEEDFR
# assaySummary: phage ELISA competition on rGHBP (100 ng/well); synthetic peptide against H5 phage
Where no end group is shown, it is not given here.
IC50 (read off the curve) by entry:

# binder, IC50 (read off the curve)
measured = [
    ("DYKDLCQSWQVTWPGWLAGWCA (cysteine pairing not given here; also: biotinylated in bP form, position not given here, H5 mutant from the secondary library (Y9 to W, L5 to W, G6 to E), synthetic) [peptide #418]", "~100 nM"),
    ("DYKDLCQRLGVTWPGWLAGWCA (cysteine pairing not given here; also: biotinylated, position not given here, H5 mutant, synthetic) [peptide #443]", "~400 nM"),
    ("DYKDLCQSLGVTYPGWLAGWCA (cysteine pairing not given here; also: biotinylated in some formats, position not given here, also called H5 phage) [GHBP-H5 peptide (H5WT)]", "~1000 nM"),
    ("DYKDLCQRLGVGWPGWLSGWCA (cysteine pairing not given here; also: biotinylated in bP form, position not given here, H5 mutant from the secondary library, synthetic) [peptide #447]", "~90 nM"),
]
